endpoint: CH4 permeability (Barrer)

*C[Si](*)(C)C (repeat unit)	130

I = *c1ccc(-c2ccc(Oc3ccc(C4(c5ccc(Oc6ccc(-c7ccc(N8C(=O)c9ccc(C(c%10ccc%11c(c%10)C(=O)N(*)C%11=O)(C(F)(F)F)C(F)(F)F)cc9C8=O)cc7)cc6C(F)(F)F)cc5)c5ccccc5C(=O)N4c4ccccc4)cc3)c(C(F)(F)F)c2)cc1 (repeat unit)
II = *OC(=O)c1cccc(C(=O)Oc2c(C)cc(C(C)(C)c3cc(C)c(O*)c(C)c3)cc2C)c1 (repeat unit)
III = *Oc1ccc(C(c2ccc(OC(=O)c3cc(C(*)=O)cc(C(C)(C)C)c3)cc2)(C(F)(F)F)C(F)(F)F)cc1 (repeat unit)
query: Endpoint returns the given molecules ordered by ascending CH4 permeability. Labels, requested order.
result: II, I, III
(II: 0.53 Barrer, I: 1.01 Barrer, III: 3.47 Barrer)

---

endpoint: H2 permeability (Barrer)

*c1ccc2c(c1)C(=O)n1c-2nc2ccc(Oc3ccc4c(c3)nc3n4C(=O)c4ccc(C(*)(C(F)(F)F)C(F)(F)F)cc4-3)cc21 (repeat unit)	54.9
*c1cccc(Oc2ccc(C(c3ccc(Oc4cccc(N5C(=O)c6ccc(C(c7ccc8c(c7)C(=O)N(*)C8=O)(C(F)(F)F)C(F)(F)F)cc6C5=O)c4)cc3)(C(F)(F)F)C(F)(F)F)cc2)c1 (repeat unit)	21
*c1ccc2c(-c3c(OC(C)=O)ccc4cc(N5C(=O)c6ccc(Oc7ccc8c(c7)C(=O)N(*)C8=O)cc6C5=O)ccc34)c(OC(C)=O)ccc2c1 (repeat unit)	3.18
*c1ccc(Cc2ccc(N3C(=O)c4ccc(Sc5ccc6c(c5)C(=O)N(*)C6=O)cc4C3=O)cc2)cc1 (repeat unit)	5.43
*CC(CCl)O* (repeat unit)	8.9
*C(C)=C(*)CCC(C)C (repeat unit)	370
*C/C=C(/C)C* (repeat unit)	49
*c1cccc2c(-n3c(=O)c4cc5oc6cc7c(cc6oc5cc4c3=O)C3(CC(C)(C)c4cc5oc6cc8c(=O)n(*)c(=O)c8cc6oc5cc43)CC7(C)C)cccc12 (repeat unit)	350
*Oc1ccc(-c2ccc(Oc3ccc(S(=O)(=O)c4ccc(*)cc4)cc3)cc2)cc1 (repeat unit)	28
*Oc1ccc2c(c1)-c1nc3cc(Oc4ccc5nc6n(c5c4)C(=O)c4cc(*)ccc4-6)ccc3n1C2=O (repeat unit)	6.88

a = *c1cccc(-c2nc3cc(-c4ccc5[nH]c(*)nc5c4)ccc3[nH]2)n1 (repeat unit)
b = *c1ccc(Oc2ccc(C3(c4ccc(Oc5ccc(N6C(=O)c7ccc(C(c8ccc9c(c8)C(=O)N(*)C9=O)(C(F)(F)F)C(F)(F)F)cc7C6=O)c(C)c5)cc4)c4ccccc4-c4ccccc43)cc2)cc1C (repeat unit)
c = *CC(*)C(=O)OCC(F)(F)C(F)(F)C(F)(F)C(F)(F)C(F)(F)C(F)(F)C(F)(F)F (repeat unit)
d = *C(=O)c1ccc(C2(c3ccc(C(=O)c4ccc(Oc5ccc(C(=O)c6cccc(C(=O)c7ccc(Oc8ccc(*)cc8)cc7)c6)cc5)cc4)cc3)OC(=O)c3ccccc32)cc1 (repeat unit)
query: Hey, quick one: sort these by H2 permeability, largest value first please. Labels, requested order.
result: c, b, d, a
(c: 300 Barrer, b: 47.3 Barrer, d: 5.3 Barrer, a: 1.38 Barrer)

1 = *CN1CN(*)Cc2cc3c(cc21)C1c2ccccc2C3c2cc(*)c(*)cc21 (repeat unit)
2 = *Oc1ccc(C(c2ccc(OC(=O)c3cc(C(*)=O)cc(C(C)(C)C)c3)cc2)(C(F)(F)F)C(F)(F)F)cc1 (repeat unit)
query: Please compare: 1 and 2 . Report which one has the smaller H2 permeability value. Kindly give the label for the entry you pick.
result: 2
(2: 86.7 Barrer, 1: 6390 Barrer)

P = *C(C(=O)OC(C)CC)C(*)C(=O)OC(C)(C)C (repeat unit)
Q = *c1ccc(Oc2ccc(N3C(=O)c4ccc(Sc5ccc6c(c5)C(=O)N(*)C6=O)cc4C3=O)cc2)cc1 (repeat unit)
R = *Oc1ccc(-c2c(-c3ccc(C)cc3)c(-c3ccc(C)cc3)c(-c3ccc4c(c3)Oc3c(C#N)c(*)c(*)c(C#N)c3O4)c(-c3ccc(C)cc3)c2-c2ccc(C)cc2)cc1O* (repeat unit)
S = *C(=C(*)c1ccc2c(c1)C(C)(C)CC2(C)C)c1ccc(Br)cc1 (repeat unit)
query: Endpoint returns the given compounds ordered by ascending H2 permeability. Labels, requested order.
result: Q, P, R, S

A = *C(=C(*)c1ccc2c(c1)C(C)(C)CC2(C)C)c1cc(F)cc(F)c1 (repeat unit)
B = *Oc1ccc(S(=O)(=O)c2ccc(Oc3c(C)cc(Cc4cc(C)c(*)c(C)c4)cc3C)cc2)cc1 (repeat unit)
query: H2 permeability comparison. Which is larger, A or B ? Kindly give the label for the entry you pick.
result: A

1 = *c1c(C)c(C)c(-n2c(=O)c3cc4oc5cc6c(cc5oc4cc3c2=O)C2(CC(C)(C)c3cc4oc5cc7c(=O)n(*)c(=O)c7cc5oc4cc32)CC6(C)C)c(C)c1C (repeat unit)
2 = *c1ccc(-c2cc(C)c(-c3ccc(*)c(C)c3)cc2C)cc1C (repeat unit)
3 = *Oc1cc2c(cc1O*)C1(CC2(C)CC)c2cc3c(cc2C(C)(CC)C1C)Oc1c(C#N)c(*)c(*)c(C#N)c1O3 (repeat unit)
query: Endpoint returns the given compounds ordered by ascending H2 permeability. Labels, requested order.
result: 2, 1, 3
(2: 51 Barrer, 1: 530 Barrer, 3: 2100 Barrer)
